Ref: PubChem BioAssay (Tox21)

assay: qHTS assay for small molecule agonists of the antioxidant response element (ARE) signaling pathway (AID 743202); details: HepG2 ARE-bla reporter, beta-lactamase FRET, 16 h; series mostly up to 73.3 µM
Inconclusive results are not listed. Active and inactive are the calls of the source. The call rests on the fitted dose curve; in most records, active means well fitted activation curve with a large enough effect in the signal ratio in the repeat runs (not every such curve was filed as active); inconclusive means weak or mixed curves, or effect the other way; inactive means no such curve, though single readings can be large or run the other way; the % refers to the signal ratio.
Give your call using only these classes: active, inactive

compound: CCCCNCCCC
label: inactive
//
compound: OCCN1CCN(CCO)CC1
label: inactive

Task: # lookup: test call for `CC(=O)Nc1ccc(C)c(Cl)c1`
Output: inactive

Task: # lookup: test call for `CC(=O)OC(C)OC(C)=O`
Output: inactive

Task: # lookup: test call for `C[C@@H]1CN(c2c(F)c(N)c3c(=O)c(C(=O)O)cn(C4CC4)c3c2F)C[C@H](C)N1`
Output: inactive

Task: # lookup: test call for `O=C(C(Cl)Cl)N1CCOC12CCCCC2`
Output: active

Task: # lookup: test call for `CC(C)Nc1nc(N)nc(Cl)n1`
Output: inactive

Task: # lookup: test call for `O=C1CCCCCCCCCCC(=O)OCCO1`
Output: inactive

Task: # lookup: test call for `NCCC(O)(P(=O)(O)O)P(=O)(O)O`
Output: inactive

Task: # lookup: test call for `CN(C)Cc1ccccc1`
Output: inactive

Task: # lookup: test call for CC1=C(O)C(=O)OC1C (stereo unspecified)
Output: inactive
